- Tested on: EKVX NSCLC
- EXPERIMENT_SUMMARY: NCI-60 one-dose screen, 48 h (100 = growth as untreated, 0 = no growth, -100 = all killed)
- MEASUREMENT_PARAMETERS: 10 µM unless noted
The panel holds about 83,000 compounds, 20% with a hit somewhere; the sample as a whole holds those more often.
Labelling: growth reported below 50% becomes T; at or above becomes F.

Some solved cases for reference:
{"COMPOUND": "O=c1nc(N2CCOCC2)oc2c(-c3cccc4ccccc34)cccc12", "TARGET_OR_TEST_SYSTEM": "EKVX NSCLC", "CLASS": "F"}
{"COMPOUND": "S=c1n(CNc2ccc(Cl)nn2)nc(-c2cc(Cl)cc(Cl)c2Cl)n1/N=C/c1ccc(Cl)cc1", "TARGET_OR_TEST_SYSTEM": "EKVX NSCLC", "CLASS": "F"}
{"COMPOUND": "COc1ccc2c(c1)OC(N(C(C)=O)C(C)=O)=C(C#N)C2c1ccc(F)cc1 (stereo unspecified)", "TARGET_OR_TEST_SYSTEM": "EKVX NSCLC", "CLASS": "T"}

Enquiry: Just wondering, is growth of Nc1nc(Cl)cc(NCCCCNc2cc(Cl)nc(N)n2)n1 below 50%?
Return: F

Enquiry: Please give the result for O=C(Nc1ccc(-n2ccc3c(NC(=O)c4ccccc4)nccc32)cc1)c1cccc(C(F)(F)F)c1 too.
Return: F

Enquiry: Please give the result for O=C(Nc1cccc(-n2ccc3c(NC(=O)c4ccccc4)nccc32)c1)Nc1cc(C(F)(F)F)cc(C(F)(F)F)c1 too.
Return: T
